IC50: recorded values
# target_or_test_system: human recombinant HDAC2 (Homo sapiens, UniProt Q92769)
# Sequence (Q92769 whole entry): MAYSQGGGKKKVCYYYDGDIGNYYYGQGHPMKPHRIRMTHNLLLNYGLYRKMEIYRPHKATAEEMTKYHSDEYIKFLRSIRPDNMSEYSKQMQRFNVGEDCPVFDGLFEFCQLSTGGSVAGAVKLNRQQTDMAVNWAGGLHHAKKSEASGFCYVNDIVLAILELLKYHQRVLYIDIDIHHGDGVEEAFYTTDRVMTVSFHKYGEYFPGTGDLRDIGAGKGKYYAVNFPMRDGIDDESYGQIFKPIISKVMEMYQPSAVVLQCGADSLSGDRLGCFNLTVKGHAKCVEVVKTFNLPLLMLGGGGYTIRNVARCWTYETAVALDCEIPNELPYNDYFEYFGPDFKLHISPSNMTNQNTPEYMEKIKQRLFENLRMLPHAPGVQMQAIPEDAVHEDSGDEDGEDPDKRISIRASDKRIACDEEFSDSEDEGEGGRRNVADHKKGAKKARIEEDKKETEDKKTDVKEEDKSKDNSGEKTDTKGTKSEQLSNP
# assay_method_text: Inhibition assay HDAC2 (fluorogenic substrate ZMAL)
# applied_conditions: 60 min preincubation at 25 °C
Your answer is read as nM, so omit the unit and give the number.

compound | measurement_units | IC50
CC(F)C(=O)Nc1ccc(C(=O)Nc2cc(-c3ccoc3)ccc2N)cc1 (centres unmarked) | nM | 47.7
CC(F)C(=O)Nc1ccc(C(=O)Nc2cc(-c3ccsc3)ccc2N)cc1 (centres unmarked) | nM | 38.1
CC(F)C(=O)NCc1ccc(C(=O)Nc2cc(-c3ccsc3)ccc2N)cc1 (centres unmarked) | nM | 39.9

-- ask Looking for the measured IC50 of CC(F)C(=O)Nc1ccc(C(=O)Nc2cc(-c3ccco3)ccc2N)cc1 (centres unmarked) , can you help?
-- reply 82.1

-- ask Looking for the measured IC50 of CC(F)C(=O)NCc1ccc(C(=O)Nc2cc(-c3cccs3)ccc2N)cc1 (centres unmarked) , can you help?
-- reply 64.3

---

specificity ratio (HDAC1/HDAC3): recorded values
# target_or_test_system: human recombinant HDAC3/NcoR2 (Homo sapiens)
# Sequence (O15379 whole entry): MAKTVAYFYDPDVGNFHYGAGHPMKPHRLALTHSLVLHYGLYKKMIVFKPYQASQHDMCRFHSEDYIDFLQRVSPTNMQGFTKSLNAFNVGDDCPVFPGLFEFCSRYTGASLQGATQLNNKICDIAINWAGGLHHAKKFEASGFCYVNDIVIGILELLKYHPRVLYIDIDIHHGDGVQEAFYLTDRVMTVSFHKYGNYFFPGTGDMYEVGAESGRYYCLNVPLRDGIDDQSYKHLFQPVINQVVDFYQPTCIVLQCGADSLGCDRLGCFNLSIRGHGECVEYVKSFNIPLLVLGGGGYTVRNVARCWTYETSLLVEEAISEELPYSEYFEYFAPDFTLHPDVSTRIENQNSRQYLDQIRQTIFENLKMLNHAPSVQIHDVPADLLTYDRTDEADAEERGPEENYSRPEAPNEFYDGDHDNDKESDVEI
# Sequence (Q9Y618 395-489 partner limits assumed): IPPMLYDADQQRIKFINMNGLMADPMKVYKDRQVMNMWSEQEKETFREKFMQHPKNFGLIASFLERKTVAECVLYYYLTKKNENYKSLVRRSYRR
# assay_method_text: Inhibition assay HDAC3 (fluorogenic substrate ZMAL)
# Format: biochemical
# applied_conditions: HDAC1 over HDAC3, from IC50 values
# Description: In vitro inhibitory activities against HDAC1−3 and HDAC6 were measured as previously published with minor modifications. […] Subsequently, 50 µL trypsin solution (0.4 mg/mL trypsin in buffer: 50 mM Tris−HCl, pH = 8.0, 100 mM NaCl) was added, followed by additional 30 min of incubation at 37 °C. […] All compounds were tested at least twice in duplicates.

compound | specificity ratio (HDAC1/HDAC3)
CC(F)C(=O)NCc1ccc(C(=O)Nc2cc(-c3ccsc3)ccc2N)cc1 (stereo not shown) | > 230
CC(F)C(=O)Nc1ccc(C(=O)Nc2cc(-c3ccc(F)cc3)ccc2N)cc1 (stereo not shown) | > 74
CC(F)C(=O)NCc1ccc(C(=O)Nc2cc(-c3cccs3)ccc2N)cc1 (stereo not shown) | 479

Now let's try a different one.
-- ask Looking for the measured specificity ratio (HDAC1/HDAC3) of CC([18F])C(=O)NCc1ccc(C(=O)Nc2cc(-c3ccsc3)ccc2N)cc1 (stereo not shown) [[^18F]BA3] , can you help?
-- reply > 230

---

# target_or_test_system: human recombinant HDAC1 (Homo sapiens)
# Sequence (Q13547 whole entry): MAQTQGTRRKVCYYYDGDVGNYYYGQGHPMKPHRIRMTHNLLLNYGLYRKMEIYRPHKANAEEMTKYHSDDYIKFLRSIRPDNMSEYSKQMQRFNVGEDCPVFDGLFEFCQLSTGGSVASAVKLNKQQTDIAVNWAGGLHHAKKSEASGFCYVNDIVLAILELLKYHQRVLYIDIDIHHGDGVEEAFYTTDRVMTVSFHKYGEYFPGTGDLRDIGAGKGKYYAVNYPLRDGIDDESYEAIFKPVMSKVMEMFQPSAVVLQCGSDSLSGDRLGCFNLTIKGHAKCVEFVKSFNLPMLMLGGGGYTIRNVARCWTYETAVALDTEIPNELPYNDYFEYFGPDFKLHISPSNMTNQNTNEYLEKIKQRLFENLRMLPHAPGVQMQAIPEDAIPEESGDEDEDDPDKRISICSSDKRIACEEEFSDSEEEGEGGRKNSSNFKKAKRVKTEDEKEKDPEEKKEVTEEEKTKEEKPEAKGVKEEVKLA
# assay_method_text: Inhibition assay HDAC1 (fluorogenic substrate ZMAL)
# applied_conditions: 60 min preincubation at 25 °C
Values of IC50 strictly less than 10 nM map to true (1), and values of at least 10 nM map to false (0).

Solved cases (5 shown):
compound | category_label
CC(F)C(=O)Nc1ccc(C(=O)Nc2cc(-c3ccc(F)cc3)ccc2N)cc1 (centres unmarked) | false (0)
CC([18F])C(=O)NCc1ccc(C(=O)Nc2cc(-c3ccsc3)ccc2N)cc1 (centres unmarked) [[^18F]BA3] | true (1)
CC(F)C(=O)Nc1ccc(C(=O)Nc2cc(-c3cccs3)ccc2N)cc1 (centres unmarked) | true (1)
CC(F)C(=O)Nc1ccc(C(=O)Nc2cc(-c3ccco3)ccc2N)cc1 (centres unmarked) | false (0)
CC(F)C(=O)NCc1ccc(C(=O)Nc2cc(-c3ccco3)ccc2N)cc1 (centres unmarked) | false (0)

-- ask Please state whether IC50 is below 10 nM for CC(F)C(=O)NCc1ccc(C(=O)Nc2cc(-c3ccsc3)ccc2N)cc1 (centres unmarked)
-- reply true (1)

-- ask Please state whether IC50 is below 10 nM for CC(F)C(=O)NCc1ccc(C(=O)Nc2cc(-c3ccoc3)ccc2N)cc1 (centres unmarked)
-- reply false (0)

-- ask Please state whether IC50 is below 10 nM for CC(F)C(=O)Nc1ccc(C(=O)Nc2cc(-c3ccoc3)ccc2N)cc1 (centres unmarked)
-- reply false (0)

-- ask Please state whether IC50 is below 10 nM for CC(F)C(=O)NCc1ccc(C(=O)Nc2cc(-c3cccs3)ccc2N)cc1 (centres unmarked)
-- reply true (1)

-- ask Please state whether IC50 is below 10 nM for CC(F)C(=O)Nc1ccc(C(=O)Nc2cc(-c3ccsc3)ccc2N)cc1 (centres unmarked)
-- reply false (0)

---

# target_or_test_system: human recombinant HDAC2 (Homo sapiens)
# assay_method_text: Inhibition assay HDAC2 (fluorogenic substrate ZMAL)
# applied_conditions: 60 min preincubation at 25 °C
# Procedure: In vitro inhibitory activities against HDAC1−3 and HDAC6 were measured as previously published with minor modifications. […] Subsequently, 50 µL trypsin solution (0.4 mg/mL trypsin in buffer: 50 mM Tris−HCl, pH = 8.0, 100 mM NaCl) was added, followed by additional 30 min of incubation at 37 °C. […] All compounds were tested at least twice in duplicates.
IC50: recorded values
Your answer is read as nM, so omit the unit and give the number.

-- ask Looking for the measured IC50 of CC([18F])C(=O)NCc1ccc(C(=O)Nc2cc(-c3ccsc3)ccc2N)cc1 (stereo not drawn) [[^18F]BA3] , can you help?
-- reply 39.9

-- ask Looking for the measured IC50 of CC(F)C(=O)Nc1ccc(C(=O)Nc2cc(-c3cccs3)ccc2N)cc1 (stereo not drawn) , can you help?
-- reply 33.5

-- ask Looking for the measured IC50 of CC(F)C(=O)NCc1ccc(C(=O)Nc2cc(-c3ccc(F)cc3)ccc2N)cc1 (stereo not drawn) , can you help?
-- reply 32.2

---

# target_or_test_system: human recombinant HDAC2 (Homo sapiens)
# assay_method_text: Inhibition assay HDAC2 (fluorogenic substrate ZMAL)
# applied_conditions: 60 min preincubation at 25 °C
experimental_endpoint: IC50 (nM)
Your answer is read as nM, so omit the unit and give the number.

Examples from the recorded data:
compound | readout_number
CC(F)C(=O)NCc1ccc(C(=O)Nc2cc(-c3ccoc3)ccc2N)cc1 (stereo not drawn) [BA9] | 56.3
CC(F)C(=O)NCc1ccc(C(=O)Nc2cc(-c3ccco3)ccc2N)cc1 (stereo not drawn) [BA7] | 69.1

Now let's try a different one.
-- ask Request - read-out IC50 | tested on human recombinant HDAC2 (Homo sapiens) | compound CC(F)C(=O)Nc1ccc(C(=O)Nc2cc(-c3ccc(F)cc3)ccc2N)cc1 (stereo not drawn) [BA6]
-- reply 56.6
